- TARGET_ENTITY: Leucine aminopeptidase (Plasmodium falciparum (isolate 3D7))
- PROTOCOL_DETAILS: P. falciparum M17LAP inhibitors, primary screen, biochemical, fluorogenic H-Leu-NHMec substrate, 1536-well (AID 1619);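 further: plate controls were full reaction with DMSO carrier for no effect and no enzyme background for full effect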
- TEST_CONTEXT: recombinant M17LAP, H-Leu-NHMec fluorogenic kinetic assay; at 30 µM; hits give high values
The whole screen tested about 220,000 compounds, of which about 830 (0.38%) were called active. The list is a sample of the results. Entries with a potency or affinity are not part of this list.
Each entry below lists one item and its recorded inhibition value.
Number only, in %; omit the unit.

{"MOLECULE": "CCOC(=O)Cc1n[nH]c(=O)c2ccccc12", "MEASUREMENT_UNIT": "%", "inhibition": 1.58}
{"MOLECULE": "O=C(CNC(=S)NC(=O)c1cccc([N+](=O)[O-])c1)c1ccccc1", "MEASUREMENT_UNIT": "%", "inhibition": -0.71}

query: So what inhibition did CCCCCC(=O)NNC(=S)NC(=O)c1ccccc1[N+](=O)[O-] get with Leucine aminopeptidase (Plasmodium falciparum (isolate 3D7))?
result: 14.3

query: Notebook entry, Leucine aminopeptidase (Plasmodium falciparum (isolate 3D7)) assay: inhibition of CCCCC(=O)NNC(=S)NC(=O)c1ccc([N+](=O)[O-])cc1 = ?
result: 44.2

query: Value wanted: inhibition (Leucine aminopeptidase (Plasmodium falciparum (isolate 3D7))) of entry O=C(Nc1cccc(C(F)(F)F)c1)c1cccnc1
result: -1.75

====

- TARGET_ENTITY: Leucine aminopeptidase (Plasmodium falciparum (isolate 3D7))
- PROTOCOL_DETAILS: P. falciparum M17LAP inhibitors, primary screen, biochemical, fluorogenic H-Leu-NHMec substrate, 1536-well (AID 1619);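 further: plate controls were full reaction with DMSO carrier for no effect and no enzyme background for full effect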
- TEST_CONTEXT: recombinant M17LAP, H-Leu-NHMec fluorogenic kinetic assay; at 30 µM; hits give high values
Out of some 220,000 compounds screened, about 830 (0.38%) were called active. The list is a sample of the results. Measured potencies and affinities stand elsewhere.
PARAMETER: inhibition (%)
State the answer as a number, implicitly in %.

Take a look at these entries with their results.
{"MOLECULE": "COc1cc(/C=N/NC(=O)c2ccccc2Cl)ccc1Oc1ccc([N+](=O)[O-])cn1", "MEASUREMENT_UNIT": "%", "ENDPOINT_RESULT": 3.71}
{"MOLECULE": "Cc1cc(SCC(=O)c2ccc(O)c(O)c2)nc2ccccc12", "MEASUREMENT_UNIT": "%", "ENDPOINT_RESULT": 36.2}
{"MOLECULE": "CCOC(=O)c1ccc(NC(=O)C2CCCN(S(=O)(=O)c3cnc[nH]3)C2)cc1 (stereo unspecified)", "MEASUREMENT_UNIT": "%", "ENDPOINT_RESULT": -0.78}

query: Dear colleague, I am looking for the recorded inhibition of the following molecule: CCOP(C)(=O)C1(C(=O)OCc2ccccc2)CC1 (stereo unspecified)
result: -6.01

query: Can you look up the measured inhibition of COc1cccc(-c2cc(=O)[nH][nH]2)c1 for me?
result: -0.06

query: Which inhibition value is on record for Cc1cc(SCC(=O)c2ccc(O)c(O)c2)n2nc(C)c(-c3ccccc3)c2n1 ?
result: 16.1

query: Fill in the blank: the reported inhibition of CCn1c(SCC(=O)c2ccc(C)cc2)nnc1-c1ccncc1 is ____.
result: 3.05

====

- TARGET_ENTITY: Leucine aminopeptidase (Plasmodium falciparum (isolate 3D7))
- PROTOCOL_DETAILS: P. falciparum M17LAP inhibitors, primary screen, biochemical, fluorogenic H-Leu-NHMec substrate, 1536-well (AID 1619);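 further: plate controls were full reaction with DMSO carrier for no effect and no enzyme background for full effect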
- TEST_CONTEXT: recombinant M17LAP, H-Leu-NHMec fluorogenic kinetic assay; at 30 µM; hits give high values
The campaign covered roughly 220,000 compounds. About 830 (0.38%) were called active. Only a sample is shown. Potency and affinity values are given separately.
PARAMETER: inhibition (%)
# number only, unit % dropped from output

Examples from the recorded data:
{"MOLECULE": "CCOC(=O)c1[nH]c(C)c(C(=O)N2CCc3c([nH]c4ccccc34)C2c2ccccn2)c1C (stereo unspecified)", "MEASUREMENT_UNIT": "%", "ENDPOINT_RESULT": -1.65}
{"MOLECULE": "Oc1[nH]c2ccccc2c1N=Nc1ccccc1", "MEASUREMENT_UNIT": "%", "ENDPOINT_RESULT": 7.84}
{"MOLECULE": "Cc1c(-c2ccccc2)oc2c(C(=O)OCC(=O)Nc3cccc(F)c3)cccc2c1=O", "MEASUREMENT_UNIT": "%", "ENDPOINT_RESULT": 2.04}
{"MOLECULE": "S=c1[nH]nc(-c2ccccn2)n1/N=C/c1ccco1", "MEASUREMENT_UNIT": "%", "ENDPOINT_RESULT": 0.92}
{"MOLECULE": "Cn1ncc([N+](=O)[O-])c1C(=O)Nc1nc2ccccc2n1CCN1CCCCC1", "MEASUREMENT_UNIT": "%", "ENDPOINT_RESULT": 48.4}

query: What measured inhibition goes with Oc1[nH]c2ccccc2c1N=Nc1ccc(F)cc1 ?
result: 26.1

query: Quick check: inhibition of Cc1c(Cl)cccc1NC(CC(=O)c1ccccc1)C(=O)O (stereo unspecified) ?
result: 49.4

query: May I ask what inhibition has been recorded for CCN(C(=O)Cn1cnc2cc([N+](=O)[O-])ccc2c1=O)C1CCS(=O)(=O)C1 (stereo unspecified) ?
result: 12.2

query: Find the recorded inhibition belonging to CC(OC(=O)Cc1coc2ccc3ccccc3c12)C(=O)Nc1ncc(Cl)cc1Cl (stereo unspecified) and report it.
result: 5.82

query: For the molecule COC(=O)c1cc(NC(C)=O)ccc1N1CCOCC1 , what inhibition is on record?
result: 8.76

query: Entry CC(=O)c1cccc(N=Nc2c(C)[nH]c3ccccc23)c1 has what inhibition?
result: -8.29

====

- TARGET_ENTITY: Leucine aminopeptidase (Plasmodium falciparum (isolate 3D7)) (UniProt Q8IL11)
- Sequence (Q8IL11 whole entry, looked up): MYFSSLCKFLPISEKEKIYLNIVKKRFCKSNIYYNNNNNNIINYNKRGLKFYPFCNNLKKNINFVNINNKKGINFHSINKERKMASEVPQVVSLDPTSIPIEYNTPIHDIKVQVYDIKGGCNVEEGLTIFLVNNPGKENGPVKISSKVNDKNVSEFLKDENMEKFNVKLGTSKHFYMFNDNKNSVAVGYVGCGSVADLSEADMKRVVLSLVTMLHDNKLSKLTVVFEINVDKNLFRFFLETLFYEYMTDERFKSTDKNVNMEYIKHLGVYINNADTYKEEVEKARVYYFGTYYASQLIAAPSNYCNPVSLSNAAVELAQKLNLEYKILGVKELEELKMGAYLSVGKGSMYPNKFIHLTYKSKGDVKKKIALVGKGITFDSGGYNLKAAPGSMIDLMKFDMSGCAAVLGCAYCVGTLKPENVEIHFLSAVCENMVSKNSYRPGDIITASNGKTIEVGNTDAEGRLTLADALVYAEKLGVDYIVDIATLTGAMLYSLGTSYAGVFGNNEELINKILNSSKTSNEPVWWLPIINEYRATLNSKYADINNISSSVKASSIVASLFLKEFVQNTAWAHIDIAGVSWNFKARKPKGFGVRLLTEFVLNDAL
- PROTOCOL_DETAILS: P. falciparum M17LAP inhibitors, primary screen, biochemical, fluorogenic H-Leu-NHMec substrate, 1536-well (AID 1619);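 further: plate controls were full reaction with DMSO carrier for no effect and no enzyme background for full effect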
- TEST_CONTEXT: recombinant M17LAP, H-Leu-NHMec fluorogenic kinetic assay; at 30 µM; hits give high values
The whole screen tested about 220,000 compounds, of which about 830 (0.38%) were called active. A selection follows. Entries with a potency or affinity are not part of this list.
Items are presented alongside their recorded inhibition.
Answer with a number only, understood to be in %.

# annotated cases, reported inhibition shown
{"MOLECULE": "COc1cc(/C=C(/C#N)c2nc3ccccc3[nH]2)ccc1OCc1ccc(C(=O)O)o1", "TARGET_ENTITY": "Leucine aminopeptidase (Plasmodium falciparum (isolate 3D7)) (UniProt Q8IL11)", "ENDPOINT_RESULT": -33.5}
{"MOLECULE": "COc1cc(NC(=O)c2ccccc2Cl)c(OC)cc1NC(=O)CN1CCCCC1", "TARGET_ENTITY": "Leucine aminopeptidase (Plasmodium falciparum (isolate 3D7)) (UniProt Q8IL11)", "ENDPOINT_RESULT": 13.6}
{"MOLECULE": "CCCCNC(=O)c1ccc2c(SCC(=O)O)c3c(nc2c1)CCCC3", "TARGET_ENTITY": "Leucine aminopeptidase (Plasmodium falciparum (isolate 3D7)) (UniProt Q8IL11)", "ENDPOINT_RESULT": 45.8}
{"MOLECULE": "O=C(O)CCN1C(=O)/C(=C\\c2ccncc2)SC1=S", "TARGET_ENTITY": "Leucine aminopeptidase (Plasmodium falciparum (isolate 3D7)) (UniProt Q8IL11)", "ENDPOINT_RESULT": 12.4}
{"MOLECULE": "CCC(C)NC(=O)c1ccc2c(SCC(=O)O)c3c(nc2c1)CCCC3 (configuration not stated)", "TARGET_ENTITY": "Leucine aminopeptidase (Plasmodium falciparum (isolate 3D7)) (UniProt Q8IL11)", "ENDPOINT_RESULT": 25.2}

query: Hi! What's the reported inhibition for COC(=O)c1ccc(COc2ccc(/C=C(\C#N)c3nc4ccccc4[nH]3)cc2OC)o1 on Leucine aminopeptidase (Plasmodium falciparum (isolate 3D7)) (UniProt Q8IL11)?
result: -3.19

query: Recall the recorded inhibition for CC(C)CCNC(=O)c1ccc2c(SCC(=O)O)c3c(nc2c1)CCC3 with Leucine aminopeptidase (Plasmodium falciparum (isolate 3D7)) (UniProt Q8IL11) and state it.
result: 7.01

query: Which inhibition is reported with Leucine aminopeptidase (Plasmodium falciparum (isolate 3D7)) (UniProt Q8IL11) for this entry: Cc1cc(-c2ccccc2)nc(SCC(=O)N2CCCC2)n1 ?
result: 1.7

query: Lab note: need inhibition with Leucine aminopeptidase (Plasmodium falciparum (isolate 3D7)) (UniProt Q8IL11) for entry O=C(CSc1nc(O)cc(=O)n1-c1ccccc1)Nc1ccccn1 , please look it up.
result: 14.8

query: Give inhibition (Leucine aminopeptidase (Plasmodium falciparum (isolate 3D7)) (UniProt Q8IL11)) of the following molecule: Cc1ccc(OCC(=O)OC2CCS(=O)(=O)C2)cc1 (configuration not stated)
result: 1.23

query: Look up inhibition with Leucine aminopeptidase (Plasmodium falciparum (isolate 3D7)) (UniProt Q8IL11) for this molecule: COc1cc(SC)ccc1C(=O)NCc1ccc(C)cc1
result: -9.45

query: Notebook entry, Leucine aminopeptidase (Plasmodium falciparum (isolate 3D7)) (UniProt Q8IL11) assay: inhibition of O=C(CSCc1cccc(CSCC(=O)Nc2ccccc2)n1)Nc1ccccc1 = ?
result: 6.32
